settings: 298.15 K; 101.33 kPa; Liquid; Capillary tube (Ostwald / Ubbelohde) method
PARAMETER MEASURED: viscosity (mPa·s)

1: CCC(C)O (stereo not given)
2: CCCO
Enquiry: Field: lower recorded viscosity (choose 1 or 2 ) Let me know the label of the one you choose.
Return: 2
(2: 1.984 mPa·s, 1: 3.075 mPa·s)

* * *

details: 298.15 K; 101.33 kPa; Liquid; Vibrating tube method
PARAMETER MEASURED: mass density (kg/m3)

>  <COMPOUND>
CCCCOCCO [2-butoxyethan-1-ol]

>  <mass density / kg/m3>
896.312

$$$$
>  <COMPOUND>
CCC(C)O (stereo not given) [butan-2-ol]

>  <mass density / kg/m3>
802.563

$$$$
>  <COMPOUND>
CCCO [propan-1-ol]

>  <mass density / kg/m3>
800.13

$$$$
>  <COMPOUND>
CC(C)O [propan-2-ol]

>  <mass density / kg/m3>
781.588

$$$$
>  <COMPOUND>
CCCCO [butan-1-ol]

>  <mass density / kg/m3>
805.986

$$$$

* * *

conditions: 298.15 K; 101.33 kPa; Liquid; Sing-around technique in a fixed-path interferometer
PARAMETER MEASURED: speed of sound (m/s)

>  <COMPOUND>
CC(C)O [propan-2-ol]

>  <UNIT DESCRIPTOR>
m/s

>  <speed of sound>
1140.6

$$$$
>  <COMPOUND>
CCCCO [butan-1-ol]

>  <UNIT DESCRIPTOR>
m/s

>  <speed of sound>
1240.6

$$$$
>  <COMPOUND>
CCCCOCCO [2-butoxyethan-1-ol]

>  <UNIT DESCRIPTOR>
m/s

>  <speed of sound>
1306

$$$$
>  <COMPOUND>
CCC(C)O (stereo not given) [butan-2-ol]

>  <UNIT DESCRIPTOR>
m/s

>  <speed of sound>
1213.3

$$$$
>  <COMPOUND>
CCCO [propan-1-ol]

>  <UNIT DESCRIPTOR>
m/s

>  <speed of sound>
1207

$$$$

* * *

details: 298.15 K; 101.33 kPa; Liquid; Capillary tube (Ostwald / Ubbelohde) method
PARAMETER MEASURED: viscosity (mPa·s)

>  <SMILES INPUT>
CCCCO

>  <PARAMETER MEASURED>
viscosity

>  <VALUE>
2.625

$$$$
>  <SMILES INPUT>
CC(C)O

>  <PARAMETER MEASURED>
viscosity

>  <VALUE>
2.111

$$$$
>  <SMILES INPUT>
CCCCOCCO

>  <PARAMETER MEASURED>
viscosity

>  <VALUE>
2.885

$$$$

The values you see were collected from the NIST ThermoML archive (doi:10.1016/j.fluid.2013.06.021).
